Collected pKi values appear next to each entry.
MEASURED_ON: human norepinephrine transporter (hNET) (Homo sapiens)
Construct: expressed in transfected cells; host or cells: HEK-293, membranes
Sequence (P23975 whole entry): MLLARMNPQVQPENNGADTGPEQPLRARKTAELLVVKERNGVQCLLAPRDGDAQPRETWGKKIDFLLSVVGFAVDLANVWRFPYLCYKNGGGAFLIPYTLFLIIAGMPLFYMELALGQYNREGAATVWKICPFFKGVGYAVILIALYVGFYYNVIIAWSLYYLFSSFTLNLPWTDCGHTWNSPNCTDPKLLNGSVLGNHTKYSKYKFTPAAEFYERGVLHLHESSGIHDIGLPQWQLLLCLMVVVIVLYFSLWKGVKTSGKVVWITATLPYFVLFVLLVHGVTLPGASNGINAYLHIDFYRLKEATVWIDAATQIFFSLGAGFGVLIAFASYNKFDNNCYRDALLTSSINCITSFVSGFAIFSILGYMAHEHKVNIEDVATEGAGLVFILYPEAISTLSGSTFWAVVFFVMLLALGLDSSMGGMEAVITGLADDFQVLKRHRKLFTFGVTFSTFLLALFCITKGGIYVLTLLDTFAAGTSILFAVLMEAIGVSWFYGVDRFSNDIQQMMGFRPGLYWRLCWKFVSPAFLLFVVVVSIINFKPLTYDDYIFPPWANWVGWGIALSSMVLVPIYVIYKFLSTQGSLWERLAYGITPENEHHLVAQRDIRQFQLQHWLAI
ASSAY_TEXT: hNET receptor binding, [125I]-RTI-55, HEK-293 membranes
CONDITION_DESCRIPTION: Cheng-Prusoff, read-out: NET Ki
pKi: −log10 of the molar value. Where a name gives a salt, the structure may show the parent alone.

{"columns": ["COMPOUND", "pKi"],
 "data": [
  ["COc1c(Cl)c(Cl)cc(Cl)c1O[C@@H](c1ccccc1)[C@@H]1CNCCO1 [Example 91, fumarate]", 6.64],
  ["COc1cc(Cl)ccc1O[C@@H](c1cccc(F)c1)[C@@H]1CNCCO1 [Example 45, hydrochloride]", 7.98],
  ["COc1ccc(O[C@@H](c2ccccc2)[C@@H]2CNCCO2)c(Cl)c1 [Example 96, fumarate]", 7.59],
  ["Fc1ccc(Cl)c(O[C@@H](c2cccc(Cl)c2)[C@@H]2CNCCO2)c1 [Example 53, hydrochloride]", 7.58],
  ["COc1cc(F)ccc1O[C@@H](c1cccc(Cl)c1)[C@@H]1CNCCO1 [Example 52, hydrochloride]", 6.26],
  ["COc1cc(Cl)ccc1O[C@@H](c1cccc(C)c1)[C@@H]1CNCCO1 [Example 54, hydrochloride]", 7.62],
  ["COc1cc(Cl)c(Cl)cc1O[C@@H](c1ccccc1)[C@@H]1CNCCO1 [Example 93, fumarate]", 6.78],
  ["COc1cccc([C@H](Oc2ccc(C)cc2OC)[C@@H]2CNCCO2)c1 [Example 62, hydrochloride]", 7.82],
  ["Clc1cccc(O[C@@H](c2ccccc2)[C@@H]2CNCCO2)c1Cl [Example 81, fumarate]", 8.15],
  ["Fc1cccc([C@H](Oc2cccc(F)c2F)[C@@H]2CNCCO2)c1 [Example 39, hydrochloride]", 8.42],
  ["Fc1cc(F)c(O[C@@H](c2ccccc2)[C@@H]2CNCCO2)c(F)c1 [Example 86, fumarate]", 7.84],
  ["COc1ccc(Cl)c(O[C@@H](c2ccccc2)[C@@H]2CNCCO2)c1 [Example 97, fumarate]", 7.37],
  ["COc1c(Cl)cccc1O[C@@H](c1ccccc1)[C@@H]1CNCCO1 [Example 92, fumarate]", 7.06],
  ["Fc1cc(Cl)ccc1O[C@@H](c1ccccn1)[C@@H]1CNCCO1 [Example 104, fumarate]", 7.68],
  ["Fc1cc(F)c(Cl)c(O[C@@H](c2ccccc2)[C@@H]2CNCCO2)c1 [Example 83, fumarate]", 8.05],
  ["COc1cc(C)ccc1O[C@@H](c1cccc(F)c1)[C@@H]1CNCCO1 [Example 79, hydrochloride]", 7.90],
  ["COc1cccc(F)c1O[C@@H](c1cccc(F)c1)[C@@H]1CNCCO1 [Example 50, hydrochloride]", 8.10],
  ["Fc1cccc([C@H](Oc2c(F)cccc2F)[C@@H]2CNCCO2)c1 [Example 47, hydrochloride]", 8.16],
  ["COc1ccc(O[C@@H](c2cccc(C)c2)[C@@H]2CNCCO2)c(OC)c1 [Example 58, hydrochloride]", 7.37],
  ["COc1cc(F)ccc1O[C@@H](c1ccc(Cl)cc1)[C@@H]1CNCCO1 [Example 71, hydrochloride]", 7.54],
  ["Cc1cccc([C@H](Oc2cc(F)ccc2Cl)[C@@H]2CNCCO2)c1 [Example 59, hydrochloride]", 7.99],
  ["Fc1cccc([C@H](Oc2c(F)cccc2Cl)[C@@H]2CNCCO2)c1 [Example 60, hydrochloride]", 8.72],
  ["Fc1c(Cl)cccc1O[C@@H](c1ccccc1)[C@@H]1CNCCO1 [Example 80, fumarate salt]", 8.36],
  ["COc1cccc([C@H](Oc2ccc(F)cc2Br)[C@@H]2CNCCO2)c1 [Example 70, hydrochloride]", 7.93]
]}
